System: Human papillomavirus type 1a E7 protein (residues 1-88)
Assay comment: HPV1a E7 small-molecule binders, primary screen, biochemical, small-molecule microarray, residues 1-88, 635 nm (AID 1129)
Test parameters: small-molecule microarray binding, fluorescence 635 nm; higher = more signal
Use 0.7 as the dividing line for composite z-score, with the line itself on the T side and lower values as F.

- Compound: "CC(CCN1CCCCc2nc(C)c(C)cc21)=NOC(C)CN1CCCc2nc(C)c(C)cc21 (configuration not stated)"
  Subject of test: "Human papillomavirus type 1a E7 protein (residues 1-88)"
  Class label: "T"
- Compound: "C[C@H](c1ccccc1)N1C(=O)[C@H]2[C@@H]3C(=CC[C@H]2C1=O)C(=O)[C@H]1O[C@H]1[C@H]3O"
  Subject of test: "Human papillomavirus type 1a E7 protein (residues 1-88)"
  Class label: "F"
- Compound: "COCCOC(=O)N1C(=O)[C@@]2(c3ccccc31)[C@H](C(N)=O)[C@H]1C(=O)O[C@H](c3ccccc3)[C@H](c3ccccc3)N1[C@@H]2c1ccccc1OCCO"
  Subject of test: "Human papillomavirus type 1a E7 protein (residues 1-88)"
  Class label: "T"
- Compound: "CC(C)[C@@H](OCc1ccccc1)[C@H](C)C=NO[C@H](C)c1cn([C@H](CO)Cc2ccccc2)nn1"
  Subject of test: "Human papillomavirus type 1a E7 protein (residues 1-88)"
  Class label: "F"
- Compound: "CCCC[C@@H](O)C1=C(C)C[C@H]2C(=O)N(Cc3ccccc3)C(=O)[C@H]2[C@H]1CO"
  Subject of test: "Human papillomavirus type 1a E7 protein (residues 1-88)"
  Class label: "F"
- Compound: "CCCC[C@H]1OB(O)C[C@H]2C1=C(C)C[C@H]1C(=O)N(C)C(=O)[C@H]12"
  Subject of test: "Human papillomavirus type 1a E7 protein (residues 1-88)"
  Class label: "T"
- Compound: "CO[C@H]1O[C@H](CO)[C@@H](OC(=O)Nc2ccc3c(c2)OCO3)[C@H](OC(=O)Nc2ccccc2-c2ccccc2)[C@@H]1OC(=O)Nc1ccccc1-c1ccccc1"
  Subject of test: "Human papillomavirus type 1a E7 protein (residues 1-88)"
  Class label: "T"
- Compound: "C=C(COC)/C(=C/C[C@H](OC(=O)c1ccncc1)c1ccc(CO)o1)c1cc(C(=O)OC)ccc1OC"
  Subject of test: "Human papillomavirus type 1a E7 protein (residues 1-88)"
  Class label: "T"
- Compound: "CN(C)C(=O)[C@@]1(Cc2ccccc2)N=C(c2ccc(OCCCO)cc2)O[C@H]1c1ccccc1CN=[N+]=[N-]"
  Subject of test: "Human papillomavirus type 1a E7 protein (residues 1-88)"
  Class label: "T"
- Compound: "COc1ccc(O[C@H]2C=C[C@@H](c3ccccc3)O[C@@H]2COC(=O)CCC(C)=NO[C@H](C)c2cn([C@@H]3COC[C@H]3O)nn2)cc1"
  Subject of test: "Human papillomavirus type 1a E7 protein (residues 1-88)"
  Class label: "F"
- Compound: "CN1C(=O)C2C=CC(C(O)c3ccc(I)cc3)N(NC(=O)OC(C)(C)C)C2C1=O (configuration not stated)"
  Subject of test: "Human papillomavirus type 1a E7 protein (residues 1-88)"
  Class label: "T"
- Compound: "CN(C)CCCNC(=O)[C@@H]1c2ccccc2C(=O)N(Cc2cc(F)cc(C(F)(F)F)c2)[C@H]1c1ccc(CO)cc1"
  Subject of test: "Human papillomavirus type 1a E7 protein (residues 1-88)"
  Class label: "T"
- Compound: "Cc1cc2c(nc1C)CCCN2CC(C)ON=C1[C@H]2CCn3c(=O)n(-c4ccccc4)c(=O)n3[C@H]2[C@H](O)[C@@H]2O[C@H]12 (some centres not stated)"
  Subject of test: "Human papillomavirus type 1a E7 protein (residues 1-88)"
  Class label: "F"
- Compound: "C[C@@H](c1ccccc1)N1C(=O)[C@H]2[C@H]3[C@H](O)[C@H](O)CC(=NOC[C@@H](O)COCc4ccco4)[C@@H]3CC[C@H]2C1=O"
  Subject of test: "Human papillomavirus type 1a E7 protein (residues 1-88)"
  Class label: "F"
- Compound: "CC(=O)OC[C@H]1O[C@H](CCON=C(C)CCC(=O)OC[C@H]2O[C@H](C#Cc3ccccc3)C=C[C@@H]2Oc2ccc(C)cc2)C=C[C@@H]1OC(C)=O"
  Subject of test: "Human papillomavirus type 1a E7 protein (residues 1-88)"
  Class label: "F"
- Compound: "CC(C)=CCCC(C)=CCON=C1[C@H]2CCn3c(=O)n(Cc4cc5c(cc4Cl)OCO5)c(=O)n3[C@H]2[C@H](O)[C@@H]2O[C@H]12"
  Subject of test: "Human papillomavirus type 1a E7 protein (residues 1-88)"
  Class label: "F"
- Compound: "[N-]=[N+]=Nc1ccccc1C[C@@]1(C(N)=O)N=C(c2ccc(OCCCO)cc2)O[C@@H]1c1ccccc1"
  Subject of test: "Human papillomavirus type 1a E7 protein (residues 1-88)"
  Class label: "T"
- Compound: "COc1ccc(O[C@H]2C=C[C@@H](c3ccccc3)O[C@@H]2COC(=O)N2CCCCC2)cc1"
  Subject of test: "Human papillomavirus type 1a E7 protein (residues 1-88)"
  Class label: "F"
- Compound: "CC[C@@H](c1ccccc1)n1c(=O)n2n(c1=O)[C@H]1[C@H](O)[C@@H]3O[C@@H]3C(=NOCC=C(C)CCC=C(C)C)[C@H]1CC2"
  Subject of test: "Human papillomavirus type 1a E7 protein (residues 1-88)"
  Class label: "T"
- Compound: "Cc1cc(C)c(-c2cc([C@H](C)ON=C3[C@H]4CCn5c(=O)n(-c6ccccc6)c(=O)n5[C@H]4[C@H](O)[C@@H]4O[C@H]34)on2)c(C)c1"
  Subject of test: "Human papillomavirus type 1a E7 protein (residues 1-88)"
  Class label: "T"
